tested on: African green monkey kidney (Vero) cells; assay: MTT cytotoxicity, Vero cells; format: cell-based; conditions: Vero cells
attribute_measured: CC50 (µM)
API: value field is a number in µM; no unit string.

Reference set, count: 4
q: Determine from records and report CC50 for COc1cc(OC)c2cc(-c3nc4ccccc4[nH]3)c(-c3ccc(C)cc3)nc2c1 [GT-35]
a: 42

q: Provide only the value of recorded CC50 for CCN1CCN(C(=O)c2ccc(-c3nc4ccccc4nc3-c3ccccc3)cc2)CC1 [GT-30]
a: 81

q: Write down CC50 measured for item c1ccc(Cn2cc(-c3cccnc3)c(-c3nc(-c4ccccc4)c(-c4ccccc4)[nH]3)n2)cc1 [GT-34]
a: 14

q: Return CC50 for the following compound: COc1ccc(-c2cc(C(=O)Oc3cccc(-c4cnc5ccccc5n4)c3)c3ccccc3n2)cc1 [GT-31]
a: 97

# next compound below
q: Consider the compound N#CC(c1ccccc1)C(C(Cc1ccccc1)=NO)c1ccccc1 (stereo not shown) [GT-11] and give its recorded CC50.
a: 18.9

====

test system: HBV DNA replication in HepAD38 cells; test: HBV DNA replication inhibition assay in HepAD38 cells (7 days, PCR of supernatant DNA); assay type: cell-based, hepatitis B virus; settings: Hepatitis B virus; HepAD38 cells, trial 2; read-out: EC50, trial 2
Reported EC50 values follow for various molecules

Example entries and their recorded answers appear below.
q: Tell us which EC50 value is on record for O=C(NCc1ccc(-c2cccnc2)nc1)c1ccc2nccnc2c1
a: ≥ 10 µM

q: Name the recorded EC50 of the molecule listed here: NCCCC(=O)NCc1nc(-c2cccc(F)c2)c(-c2ccccn2)[nH]1
a: ≥ 10 µM

q: Give recorded EC50. CCOC(=O)c1cc(-c2cc(C(=O)OCC)c3ccccc3n2)nc2ccccc12
a: > 10 µM

q: Identify measured EC50 corresponding to CCn1ccnc1-c1c(-c2ccccc2)ncn1CCCc1cccnc1
a: 10 µM

q: Retrieve EC50 measured for Cc1ccc2[nH]c(CCNc3nccc(-c4ccccn4)n3)nc2c1C and print it.
a: ≥ 10 µM

Continuing:
q: For the molecule Cc1nc(-c2c(-c3ccccc3)ncn2Cc2cccc3[nH]ccc23)c[nH]1 , give its measured EC50 value.
a: 10 µM

q: Consider the molecule O=C(OCc1ccc(-c2cnc3ccccc3n2)cc1)c1cccs1 . State its measured EC50.
a: > 10 µM

====

tested on: human liver carcinoma (HepG2) cells; experiment: MTT cytotoxicity, HepG2 cells; assay type: cell-based; conditions: HepG2 cells
attribute_measured: log10 CC50 (log10 of the value in µM)
Reminder: these figures are log10 of reported CC50, in µM before transformation.

q: For the molecule CC(=O)N1CCC(NCc2nc(-c3ccc(C)cc3)c(-c3ccccn3)[nH]2)CC1 , give its reported log10 CC50.
a: 1.85

Further cases:
q: Hello, please tell me recorded log10 CC50 for this one: CCN1CCN(C(=O)c2ccc(-c3nc4ccccc4nc3-c3ccccc3)cc2)CC1
a: 1.53

q: Identify measured log10 CC50 associated with Cc1ccc(CC#N)c(-c2c(CC#N)ccc(C)c2C)c1C
a: 1.74

====

test: MTT cytotoxicity, Vero cells; assay type: cell-based, African green monkey; settings: African green monkey; Vero cells
attribute_measured: CC50 (nM)
A number alone suffices; assume nM.

q: Please look at this molecule and report its CC50: C[C@@H]1C[C@@H]([C@H](O)CC2CC(=O)NC(=O)C2)C(=O)[C@@H](C)C1 [Cycloheximide, reference compound]
a: 200

====

test system: human peripheral blood mononuclear (PBM) cells; assay: MTT cytotoxicity, PBM cells; assay type: cell-based; settings: 100 µM
Classification field: enter 1 for percent cytotoxicity (cell growth inhibition) at 100 µM values not below 20%, 0 for values below it.

q: Does percent cytotoxicity (cell growth inhibition) at 100 µM meet or surpass 20% for CCn1ccnc1-c1c(-c2ccccc2)ncn1CCCc1cccnc1 ?
a: 1

q: Does the reported percent cytotoxicity (cell growth inhibition) at 100 µM for COc1cc(OC)c2cc(-c3nc4ccccc4[nH]3)c(-c3ccc(C)cc3)nc2c1 fall at or above the 20% mark?
a: 0

q: Could you verify whether the entry Cc1nc(-c2c(-c3ccccc3)ncn2Cc2cccc3[nH]ccc23)c[nH]1 shows percent cytotoxicity (cell growth inhibition) at 100 µM of no less than 20%?
a: 0

---
q: Hello, I need to know if Cc1ccc2[nH]c(CCNc3nccc(-c4ccccn4)n3)nc2c1C has measured percent cytotoxicity (cell growth inhibition) at 100 µM not below 20%. Thanks!
a: 0

====

Test system: HBV DNA replication in HepAD38 cells
Assay: HBV DNA replication inhibition assay in HepAD38 cells (7 days, PCR of supernatant DNA)
Format: cell-based, hepatitis B virus
Conditions: HepAD38 cells, 10 μM, trial 1
Description: HepAD38 cells were seeded at 50,000 cells/well in collagen-coated 96-well plates. […] The experiment lasted 7 days. On day 7, total DNA was purified from the supernatant using a commercially available kit (DNeasy 96 Blood & Tissue kit, Qiagen). The HBV DNA was amplified in a polymerase chain reaction assay using LightCycler 480 II (Roche), as previously described.[63] All samples were tested in duplicate.
The following compounds are listed with their measured % HBV DNA Inh. at 10 μM, trial 1 values.

q: Check the records and state % HBV DNA Inh. at 10 μM, trial 1 for c1ccc(Cn2cc(-c3cccnc3)c(-c3nc(-c4ccccc4)c(-c4ccccc4)[nH]3)n2)cc1 [GT-34]
a: < 1%

New cases:
q: # return recorded % HBV DNA Inh. at 10 μM, trial 1 for input Cc1nc2ccccc2nc1-c1sc2ncccc2c1O [GT-37]
a: 40%

====

test system: T lymphoblast CEM-CCRF (CEM) cells; experiment: MTT cytotoxicity, CEM cells; assay type: cell-based, human
attribute_measured: log10 CC50 (log10 of the value in µM)
Please be aware that the numbers have been log10-transformed from CC50 in µM.

Below, 2 compounds whose answers are already recorded.
q: Supply log10 CC50 value. Item: NCc1ccc(F)c(COC2CCCC2)c1
a: 1.56

q: Query log10 CC50 for N#CC(c1ccccc1)C(C(Cc1ccccc1)=NO)c1ccccc1 (stereo not drawn)
a: 1.12

Continuing:
q: Read off the recorded log10 CC50 for CC(N)c1ccc(-c2ccc(F)cc2)cc1 (stereo not drawn)
a: 1.55

q: For Oc1c(C(Nc2ccccc2)c2ccccc2)ccc2cccnc12 (stereo not drawn) , write its log10 CC50.
a: 0.53

q: Answer with reported log10 CC50 of NCc1cccc(-c2ccccn2)c1
a: 1.05

====

tested on: African green monkey kidney (Vero) cells; assay: MTT cytotoxicity, Vero cells; type: cell-based; settings: Vero cells
The following compounds are shown together with reported CC50 values.
Output spec: scalar in µM, unitless text.

Some compounds with known CC50 results, for comparison:
q: Give me measured CC50, please, for this compound: CCN(CC)CCCNc1cc(OC)c(Nc2ccccc2)c2cccnc12
a: 16

q: Using the record for Cc1cc(-c2ccccc2)nc(C#N)c1C#N , state its measured CC50.
a: 27.3

Could you now look at the following compound, please?
q: Note CC50 for the compound shown: Clc1ccccc1C=Cc1ccnc2ccccc12
a: 27

====

target: Cp149 (Hepatitis B virus genotype D subtype adw); construct: The N-terminal domain of Cp (Cp149) is sufficient for forming regular capsids; made in house; host or cells: E. coli BL21(DE3); assay: Tryptophan fluorescence titration; format: binding; details: dissociation constant (KD), estimated, 20 μM Cp149, single-site fit
Sequence (P03147 1-149): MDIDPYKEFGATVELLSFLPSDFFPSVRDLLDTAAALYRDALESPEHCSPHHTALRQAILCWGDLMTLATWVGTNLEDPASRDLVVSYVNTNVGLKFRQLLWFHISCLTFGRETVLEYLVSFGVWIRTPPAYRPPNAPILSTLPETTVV
attribute_measured: Kd (µM)
Please reply with the bare figure in µM and do not write the unit itself.

q: Consider the molecule O=C(NCc1ccc(-c2cccnc2)nc1)c1ccc2nccnc2c1 . State its measured Kd.
a: 263

====

system: African green monkey kidney (Vero) cells; assay: MTT cytotoxicity, Vero cells; format: cell-based; details: Vero cells
attribute_measured: CC50

Some entries whose results are on file:
q: Give CC50 for COc1ccc(F)c(Cn2cnc(-c3ccccc3)c2-c2c[nH]cn2)c1F
a: 48 µM

q: Fill in reported CC50 for this entry: O=C(NCCn1ccnc1)c1ccccn1
a: > 100 µM

q: Given the molecule NCc1cccc(Oc2ccccc2)c1 [GT-21] , write its reported CC50.
a: 49.6 µM

q: Supply CC50 value. Item: CC(NC(=O)c1ccccc1)c1ccccn1 (stereo not shown)
a: > 100 µM

q: State its CC50: NCc1ccc(N2CCC(CO)CC2)cc1
a: > 100 µM

Others:
q: Identify CC50 associated with the molecule O=C(OCc1ccccc1)c1cccnc1
a: > 100 µM

q: Give recorded CC50. NCc1cccc(-c2ccccn2)c1
a: > 100 µM

====

system: T lymphoblast CEM-CCRF (CEM) cells; experiment: MTT cytotoxicity, CEM cells; assay type: cell-based, human; conditions: 100 µM
% cytotoxicity at 100 µM (MTT), CEM cells values for the compounds below.
Report the figure in % without appending any unit label.

Recorded % cytotoxicity at 100 µM (MTT), CEM cells, per entry:
q: Given CCOC(=O)c1cc(-c2cc(C(=O)OCC)c3ccccc3n2)nc2ccccc12 [GT-33] , report its % cytotoxicity at 100 µM (MTT), CEM cells on T lymphoblast CEM-CCRF (CEM) cells.
a: 32

q: Look up T lymphoblast CEM-CCRF (CEM) cells data: % cytotoxicity at 100 µM (MTT), CEM cells of Cc1ccc2[nH]c(CCNc3nccc(-c4ccccn4)n3)nc2c1C [GT-47] , then report it.
a: 48

q: Quote % cytotoxicity at 100 µM (MTT), CEM cells with test system T lymphoblast CEM-CCRF (CEM) cells for NCCCC(=O)NCc1nc(-c2cccc(F)c2)c(-c2ccccn2)[nH]1 [GT-45]
a: 36

New cases:
q: # return % cytotoxicity at 100 µM (MTT), CEM cells of COc1cc(OC)c2cc(-c3nc4ccccc4[nH]3)c(-c3ccc(C)cc3)nc2c1 [GT-35] (system: T lymphoblast CEM-CCRF (CEM) cells)
a: 49

q: Check T lymphoblast CEM-CCRF (CEM) cells data and give % cytotoxicity at 100 µM (MTT), CEM cells for COc1ccc(-c2cc(C(=O)Oc3cccc(-c4cnc5ccccc5n4)c3)c3ccccc3n2)cc1 [GT-31] .
a: 36
